Biological target: T1, recombinant human latent myostatin (human, UniProt O14793 24-375, biotinylated (in the Octet pH assay only))
T1 construct: also called biotinylated human latent myostatin
Experiment: BLI (Octet Red384): streptavidin biosensors loaded with biotinylated human latent myostatin, antibody association 300 s, dissociation in PBS at pH 7.4 or pH 5.5
endpoint_name: fold difference in off-rate (Kd at pH 5.5 / Kd at pH 7.4) (fold)
Kindly provide the numeric value in fold only, without the unit symbol.

Worked set:
- Ab137 (antibody, human IgG4 S228P, kappa, V domains shown) VH: EVQLVESGGGLVQPGGSLRLSCAASGFTFSSYGMSWVRQAPGKGLELVASFTGSGGTYYPDSVKGRFTISRDNAKNSLYLQMNSLRAEDTAVYYCARDLLIRFLEWGHYYGMDVWGQGTTVTVSS VL: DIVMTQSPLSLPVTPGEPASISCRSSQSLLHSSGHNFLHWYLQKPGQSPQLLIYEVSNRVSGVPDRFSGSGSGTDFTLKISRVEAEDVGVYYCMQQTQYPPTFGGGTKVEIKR: 26
- Ab109 (antibody, human IgG4 S228P, kappa, V domains shown, human IgG4 in the EM experiment; also called Ab109 Human IgG4) VH: EVQLVESGGGLVQPGGSLRLSCAASGFTFSSYGMSWVRQAPGKGLELVASFTGSGGTYYPDSVKGRFTISRDNAKNSLYLQMNSLRAEDTAVYYCARDLLIRFLEWSHYYGMDVWGQGTTVTVSS VL: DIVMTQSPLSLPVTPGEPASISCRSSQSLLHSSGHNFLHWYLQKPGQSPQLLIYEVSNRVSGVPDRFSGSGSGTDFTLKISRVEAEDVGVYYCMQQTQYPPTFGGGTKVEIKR: 18.4
- Ab139 (antibody, human IgG4 S228P, kappa, V domains shown) VH: EVQLVESGGGLVQPGGSLRLSCAASGFTFSSYGMSWVRQAPGKGLELVASFTGSGAAYYPDSVKGRFTISRDNAKNSLYLQMNSLRAEDTAVYYCARDLLIRFLEWSHYYGMDVWGQGTTVTVSS VL: DIVMTQSPLSLPVTPGEPASISCRSSQSLLHSSGHNFLHWYLQKPGQSPQLLIYESSNRVSGVPDRFSGSGSGTDFTLKISRVEAEDVGVYYCQQQTQYPPTFGGGTKVEIKR: 16.3
- Ab140 (antibody, human IgG4 S228P, kappa, V domains shown) VH: EVQLVESGGGLVQPGGSLRLSCAASGFTFSSYGMSWVRQAPGKGLELVASFTGSGGTYYPDSVKGRFTISRDNAKNSLYLQMNSLRAEDTAVYYCARDNLIRFLEWSHYYGMDVWGQGTTVTVSS VL: DIVMTQSPLSLPVTPGEPASISCRSSQSLLHSSGHNFLHWYLQKPGQSPQLLIYEVSNRESGVPDRFSGSGSGTDFTLKISRVEAEDVGVYYCQQQTQYPPTFGGGTKVEIKR: 10.4

Please look at the following binder next.
The reported fold difference in off-rate (Kd at pH 5.5 / Kd at pH 7.4) of the binder Ab138 (antibody, human IgG4 S228P, kappa, V domains shown) VH: EVQLVESGGGLVQPGGSLRLSCAASGFTFTSYGMSWVRQAPGKGLELVASITGSKGETYYPDSVKGRFTISRDNAKNSLYLQMNSLRAEDTAVYYCARDLLVRFLEWSHYYGMDVWGQGTTVTVSS VL: DIVMTQSPLSLPVTPGEPASISCRSSQSLLHSSGHNFLHWYLQKPGQSPQLLIYETSNRAPGIPDRFSGSGSGTDFTLKISRVEAEDVGVYYCQQATQFPRPFGGGTKVEIKR was 7.9
